System: RAW 264.7 cells
Experiment: MTT assay, viability of RAW 264.7 cells
Format: cell-based
Settings: compound diluted to 30 mol/L (so in the source), 12 h
Marks after values point to notes of the source that are not given here.
outcome measure: RAW cell viability

query: Which RAW cell viability value belongs to CCN1C[C@]2(COC)CC[C@H](OC)[C@@]34C5C[C@]6(OC(=O)c7cccnc7)[C@@H](OC)C[C@@](OC(C)=O)(C5[C@H]6OC(=O)c5ccc(OC)cc5)C([C@H](OC)C23)[C@@H]14 (stereo partly shown) ?
result: 116.43 ± 15.6 ^ %

query: Which RAW cell viability value belongs to CCN1C[C@]2(COC)CC[C@H](OC)[C@@]34C5C[C@]6(OC(=O)c7ccco7)[C@@H](OC)C[C@@](OC(C)=O)(C5[C@H]6OC(=O)c5ccc(OC)cc5)C([C@H](OC)C23)[C@@H]14 (stereo partly shown) ?
result: 119.75 ± 1.11***^ %

query: Which RAW cell viability value belongs to CCO[C@]12C[C@H](OC)[C@@]3(OC(=O)c4cccnc4)CC(C1[C@H]3OC(=O)c1cccnc1)[C@]13C4[C@@H](OC)C2[C@H]1N(CC)C[C@]4(COC)CC[C@@H]3OC (stereo partly shown) ?
result: 87.20 ± 7.66 ^ %

query: Which RAW cell viability value belongs to CCO[C@]12C[C@H](OC)[C@@]3(OC(=O)C4CCCCC4)CC(C1[C@H]3OC(=O)c1ccc(OC)cc1)[C@]13C4[C@@H](OC)C2[C@H]1N(CC)C[C@]4(COC)CC[C@@H]3OC (stereo partly shown) ?
result: 13.36 ± 0.9***^ %

query: Which RAW cell viability value belongs to CCO[C@]12C[C@H](OC)[C@@]3(OC(=O)c4ccc([N+](=O)[O-])cc4)CC(C1[C@H]3OC(=O)c1ccc(OC)cc1)[C@]13C4[C@@H](OC)C2[C@H]1N(CC)C[C@]4(COC)CC[C@@H]3OC (stereo partly shown) ?
result: 6.97 ± 0.93 %

query: Which RAW cell viability value belongs to CCO[C@]12C[C@H](OC)[C@@]3(OC(=O)C4CCOCC4)CC(C1[C@H]3OC(=O)C1CCOCC1)[C@]13C4[C@@H](OC)C2[C@H]1N(CC)C[C@]4(COC)CC[C@@H]3OC (stereo partly shown) ?
result: 81.35 ± 3.48 %

query: Which RAW cell viability value belongs to CCO[C@]12C[C@H](OC)[C@@]3(OC(=O)c4ccc(OC)cc4)CC(C1[C@H]3OC(=O)c1ccc(OC)cc1)[C@]13C4[C@@H](OC)C2[C@H]1N(CC)C[C@]4(COC)CC[C@@H]3OC (stereo partly shown) ?
result: 8.29 ± 2.8 %
